Documented MIC across a set of compounds
# Test system: B. fragilis A 22021
# Assay Remarks: In vitro activity against anaerobes (MIC), two-fold serial agar dilution, GAM agar
# Type: cell-based
# Condition Details: Bacteroides fragilis, A22021, Gn, Beta-Lactamase(-)
Assay Metric: MIC (µg/mL)

[[record]]
compound = "CO/N=C(\\C(=O)NC1C(=O)N2C(C(=O)O)=C(/C=C/COC(=O)c3ccc(O)c(O)c3)CS[C@H]12)c1nsc(N)n1 (stereo partly shown)"
units_symbol = "µg/mL"
readout_number = 0.2

[[record]]
compound = "CC(C)(O/N=C(\\C(=O)NC1C(=O)N2C(C(=O)O)=C(/C=C/COC(=O)c3ccc(O)c(O)c3)CS[C@H]12)c1csc(N)n1)C(=O)O (stereo partly shown)"
units_symbol = "µg/mL"
readout_number = 0.2

[[record]]
compound = "CO/N=C(\\C(=O)NC1C(=O)N2C(C(=O)O)=C(/C=C/COC(=O)c3ccc(O)c(O)c3)CS[C@H]12)c1csc(N)n1 (stereo partly shown)"
units_symbol = "µg/mL"
readout_number = 0.2

[[record]]
compound = "CO/N=C(\\C(=O)NC1C(=O)N2C(C(=O)O)=C(/C=C/COC(=O)Nc3ccc(O)c(O)c3)CSC12)c1csc(N)n1 (stereo not shown)"
units_symbol = "µg/mL"
readout_number = 0.4


====

# Test system: CETresistant E. coli(3), and Kl. pneumoniae(2)
# Assay Remarks: MIC, two-fold serial agar dilution, Mueller-Hinton agar (geometric mean, group Gn-Ib)
# Assay type: cell-based
# Condition Details: Escherichia coli, read-out: Geometric Mean of MIC, Gn-Ib
Documented MIC across a set of molecules
Assay Metric: MIC (µg/mL)

[[record]]
molecule = "CO/N=C(\\C(=O)NC1C(=O)N2C(C(=O)O)=C(/C=C/COC(=O)c3ccc(O)c(O)c3)CS[C@H]12)c1nsc(N)n1 (stereo partly shown)"
assay_metric = "MIC"
readout_number = 0.026

[[record]]
molecule = "CO/N=C(\\C(=O)NC1C(=O)N2C(C(=O)O)=C(/C=C/COC(=O)Nc3ccc(O)c(O)c3)CSC12)c1csc(N)n1 (stereo not shown)"
assay_metric = "MIC"
readout_number = 0.46

[[record]]
molecule = "CC(C)(O/N=C(\\C(=O)NC1C(=O)N2C(C(=O)O)=C(/C=C/COC(=O)c3ccc(O)c(O)c3)CS[C@H]12)c1csc(N)n1)C(=O)O (stereo partly shown)"
assay_metric = "MIC"
readout_number = 0.019

[[record]]
molecule = "CO/N=C(\\C(=O)NC1C(=O)N2C(C(=O)O)=C(/C=C/COC(=O)c3ccc(O)c(O)c3)CS[C@H]12)c1csc(N)n1 (stereo partly shown)"
assay_metric = "MIC"
readout_number = 0.029


====

# Test system: Cephalothin (CET)sensitive E. coli(2), Kl. pneumoniae(1) and Pr. mirabilis(2)
# Assay Remarks: MIC, two-fold serial agar dilution, Mueller-Hinton agar (geometric mean, group Gn-Ia)
# Format: cell-based
# Condition Details: 5 strains
Assay Metric: MIC (µg/mL)

[[record]]
molecule = "CO/N=C(\\C(=O)NC1C(=O)N2C(C(=O)O)=C(/C=C/COC(=O)c3ccc(O)c(O)c3)CS[C@H]12)c1csc(N)n1 (stereo partly shown)"
units_symbol = "µg/mL"
readout_number = 0.017

[[record]]
molecule = "CO/N=C(\\C(=O)NC1C(=O)N2C(C(=O)O)=C(/C=C/COC(=O)Nc3ccc(O)c(O)c3)CSC12)c1csc(N)n1 (stereo not shown)"
units_symbol = "µg/mL"
readout_number = 0.23

[[record]]
molecule = "CC(C)(O/N=C(\\C(=O)NC1C(=O)N2C(C(=O)O)=C(/C=C/COC(=O)c3ccc(O)c(O)c3)CS[C@H]12)c1csc(N)n1)C(=O)O (stereo partly shown)"
units_symbol = "µg/mL"
readout_number = 0.022

[[record]]
molecule = "CO/N=C(\\C(=O)NC1C(=O)N2C(C(=O)O)=C(/C=C/COC(=O)c3ccc(O)c(O)c3)CS[C@H]12)c1nsc(N)n1 (stereo partly shown)"
units_symbol = "µg/mL"
readout_number = 0.022


====

Documented MIC across a set of compounds
# Test system: B. fragilis A 22695
# Assay Remarks: In vitro activity against anaerobes (MIC), two-fold serial agar dilution, GAM agar
# Type: cell-based
# Condition Details: Bacteroides fragilis, A22695, Gn, Beta-Lactamase(+)
Assay Metric: MIC (µg/mL)

[[record]]
compound = "CO/N=C(\\C(=O)NC1C(=O)N2C(C(=O)O)=C(/C=C/COC(=O)c3ccc(O)c(O)c3)CS[C@H]12)c1csc(N)n1 (stereo partly shown)"
assay_metric = "MIC"
readout_number = 12.5

[[record]]
compound = "CO/N=C(\\C(=O)NC1C(=O)N2C(C(=O)O)=C(/C=C/COC(=O)c3ccc(O)c(O)c3)CS[C@H]12)c1nsc(N)n1 (stereo partly shown)"
assay_metric = "MIC"
readout_number = 25

[[record]]
compound = "CC(C)(O/N=C(\\C(=O)NC1C(=O)N2C(C(=O)O)=C(/C=C/COC(=O)c3ccc(O)c(O)c3)CS[C@H]12)c1csc(N)n1)C(=O)O (stereo partly shown)"
assay_metric = "MIC"
readout_number = 3.1

[[record]]
compound = "CO/N=C(\\C(=O)NC1C(=O)N2C(C(=O)O)=C(/C=C/COC(=O)Nc3ccc(O)c(O)c3)CSC12)c1csc(N)n1 (stereo not shown)"
assay_metric = "MIC"
readout_number = 25


====

Documented MIC across a set of compounds
# Test system: B. fragilis A 21916
# Assay Remarks: In vitro activity against anaerobes (MIC), two-fold serial agar dilution, GAM agar
# Format: cell-based
# Condition Details: Bacteroides fragilis, A21916, Gn, Beta-Lactamase(-)
Assay Metric: MIC (µg/mL)

[[record]]
compound = "CC(C)(O/N=C(\\C(=O)NC1C(=O)N2C(C(=O)O)=C(/C=C/COC(=O)c3ccc(O)c(O)c3)CS[C@H]12)c1csc(N)n1)C(=O)O (stereo partly shown)"
readout_number = 0.8

[[record]]
compound = "CO/N=C(\\C(=O)NC1C(=O)N2C(C(=O)O)=C(/C=C/COC(=O)Nc3ccc(O)c(O)c3)CSC12)c1csc(N)n1 (stereo not shown)"
readout_number = 6.3

[[record]]
compound = "CO/N=C(\\C(=O)NC1C(=O)N2C(C(=O)O)=C(/C=C/COC(=O)c3ccc(O)c(O)c3)CS[C@H]12)c1csc(N)n1 (stereo partly shown)"
readout_number = 1.6

[[record]]
compound = "CO/N=C(\\C(=O)NC1C(=O)N2C(C(=O)O)=C(/C=C/COC(=O)c3ccc(O)c(O)c3)CS[C@H]12)c1nsc(N)n1 (stereo partly shown)"
readout_number = 12.5

